B1: tRNA (parent)
chain: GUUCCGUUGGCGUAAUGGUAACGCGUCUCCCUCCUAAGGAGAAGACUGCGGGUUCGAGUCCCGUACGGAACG

# Variants of: B1
# Assay name: yeast fitness relative to wild type (ratio to wild type); higher = fitter; tRNA-Arg(CCU), competitive growth, 37 C, YPD
Variants at the floor of the assay were thinned out.
Answer no if yeast fitness is under 0.7, and yes if it is 0.7 or more.

Mutation notation: A36C A45U U59A
Label class: no

Mutation notation: C4A G9C C11G G44A C60U G67C
Label class: no

Mutation notation: U32G A40U
Label class: no

Mutation notation: C5G A36U C61U
Label class: no

Mutation notation: A15C G23C G39C G63A A69C
Label class: no

Mutation notation: C4A A14G C24U U32G A42U A43G C66U
Label class: no

Mutation notation: U13A C27U U64C
Label class: yes

Mutation notation: G6A C27G A36C A42C A57U U64A A70C
Label class: no

Mutation notation: A45U G52C
Label class: no

Mutation notation: C24A G44A U54C G56C
Label class: no

Mutation notation: C5A C31G A37G A70U
Label class: no

Mutation notation: C4A C30A A40G
Label class: yes

Mutation notation: U47G U54C
Label class: no

Mutation notation: U3A G56C G67C
Label class: no

Mutation notation: C30U C46G G52A
Label class: no

Mutation notation: G12C C22U U28A
Label class: no

Mutation notation: C4A G18A C27U U28G C33G A36G
Label class: no

Mutation notation: C5A U13A C27G A37G
Label class: no

Mutation notation: C5A A21C C30G C34U G38C C49U C55U A70C
Label class: no

Mutation notation: A37C A42G
Label class: yes
